target: human ether-à-go-go-related gene (hERG) potassium channel (human); assay: primary screen, population patch clamp on CHO cells stably expressing hERG; higher = less effect of the substance;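 further: peak tail current of the secondary pulse compared with the same well before compound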
Sequence (Q12809 whole entry, looked up): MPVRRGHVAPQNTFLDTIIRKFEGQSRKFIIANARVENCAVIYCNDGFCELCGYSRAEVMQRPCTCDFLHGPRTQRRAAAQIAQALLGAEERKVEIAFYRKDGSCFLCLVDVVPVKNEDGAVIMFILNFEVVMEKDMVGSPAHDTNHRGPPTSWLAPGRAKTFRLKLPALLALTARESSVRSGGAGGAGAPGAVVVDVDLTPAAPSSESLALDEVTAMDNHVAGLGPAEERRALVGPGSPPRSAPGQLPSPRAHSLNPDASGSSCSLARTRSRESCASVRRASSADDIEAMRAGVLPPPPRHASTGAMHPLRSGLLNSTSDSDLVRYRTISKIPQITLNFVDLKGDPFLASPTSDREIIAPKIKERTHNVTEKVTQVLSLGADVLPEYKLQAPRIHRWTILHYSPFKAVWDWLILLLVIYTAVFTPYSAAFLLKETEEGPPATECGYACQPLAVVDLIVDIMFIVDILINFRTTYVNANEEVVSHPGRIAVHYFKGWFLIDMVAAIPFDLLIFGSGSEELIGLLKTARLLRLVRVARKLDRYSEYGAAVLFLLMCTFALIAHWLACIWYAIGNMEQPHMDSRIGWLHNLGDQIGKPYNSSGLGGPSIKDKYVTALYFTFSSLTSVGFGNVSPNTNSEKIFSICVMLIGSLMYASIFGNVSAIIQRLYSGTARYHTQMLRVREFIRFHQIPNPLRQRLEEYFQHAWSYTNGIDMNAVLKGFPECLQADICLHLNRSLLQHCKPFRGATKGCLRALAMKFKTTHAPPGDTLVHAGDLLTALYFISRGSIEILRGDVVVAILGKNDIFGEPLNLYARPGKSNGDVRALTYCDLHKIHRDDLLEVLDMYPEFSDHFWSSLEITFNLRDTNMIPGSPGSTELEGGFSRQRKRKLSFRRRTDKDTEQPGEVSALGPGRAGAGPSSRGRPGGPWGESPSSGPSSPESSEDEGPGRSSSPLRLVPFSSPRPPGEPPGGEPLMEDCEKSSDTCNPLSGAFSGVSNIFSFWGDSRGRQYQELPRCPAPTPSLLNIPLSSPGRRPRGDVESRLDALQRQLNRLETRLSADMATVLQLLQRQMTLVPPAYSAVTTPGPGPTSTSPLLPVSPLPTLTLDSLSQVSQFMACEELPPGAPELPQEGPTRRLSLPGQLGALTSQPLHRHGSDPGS
About 14,000 (4.5%) of roughly 310,000 compounds showed an effect of 50% or more. Effects have a minus sign here. The sample holds strong results, similar compounds and a random draw of the others, so the mix is not that of the screen.
hERG current change (%, negative = inhibition) at 10uM for assorted compounds
Measured Parameter: hERG current change (%, negative = inhibition) at 10uM (%)

Cn1c(N)c(C(=O)COC(=O)/C=C/c2ccc(F)cc2)c(=O)n(C)c1=O    -51.8
COc1ccccc1CCC(=O)OCC(=O)c1c(N)n(CC(C)C)c(=O)n(C)c1=O    -70.3
Cc1cccc(OCC(=O)OCC(=O)c2c(N)n(C)c(=O)n(C)c2=O)c1C    -1.84
O=C(CSc1nnc(SCc2ccccc2)s1)N/N=C/C=C\c1ccco1    9.17
COc1ccc(CCC(=O)OCC(=O)c2c(N)n(CC(C)C)c(=O)n(C)c2=O)cc1    -33.4
Cn1c(N)c(C(=O)COC(=O)COc2ccccc2C#N)c(=O)n(C)c1=O    -23.2
COc1cccc(N/C(=N/C(=S)Nc2ccc(C)cc2C)Nc2nc(C)cc(C)n2)c1    0.704
Cc1ccc(N2CC(C(=O)OCC(=O)c3c(N)n(CC(C)C)c(=O)n(C)c3=O)CC2=O)cc1 (stereo not drawn)    -3.07
COc1ccc(/C=C/C(=O)OCC(=O)c2c(N)n(C)c(=O)n(C)c2=O)cc1    5.38

###

target: human ether-à-go-go-related gene (hERG) potassium channel (human); test: primary screen, population patch clamp on CHO cells stably expressing hERG; higher = less effect of the substance;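 further: peak tail current of the secondary pulse compared with the same well before compound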
The whole screen tested about 310,000 compounds, of which about 14,000 (4.5%) showed an effect of 50% or more. The effect is printed as a negative number. The list comes from a sample in which strong results are over-represented; it also holds close analogues and randomly drawn compounds.
Measured Parameter: hERG current change (%, negative = inhibition) at 10uM (%)

O=c1oc(-c2ccccc2NS(=O)(=O)c2ccc3ccccc3c2)nc2ccccc12    22.9
COc1ccccc1CC(=O)N1CCN(c2ccc([N+](=O)[O-])cc2)CC1    -52
COc1ccccc1CC(=O)N1CCN(c2ccc(F)cc2)CC1    -11.1
Cn1cc(-c2nnnn2-c2ccc(Cl)cc2)c(=O)c2ccccc21    -69.3
CS(=O)(=O)N1CCN(C(=O)Cc2ccc([N+](=O)[O-])cc2)CC1    0.692
Cc1ccc(CC(=O)N2CCN(c3ccc([N+](=O)[O-])cc3)CC2)cc1    -62.1
CC(C)(C)c1ccc(-n2ncc3c2CCCC3NC(=O)C2(C(N)=O)CC2)cc1 (centres unmarked)    -29.1
CCC(=O)NC(c1ccc(OC)cc1)c1c(O)ccc2ccccc12 (centres unmarked)    3.82
CC(Sc1nnc(C2CCCCC2)n1N)C(=O)NCc1ccc2c(c1)OCO2 (centres unmarked)    3.2
O=C(Cc1ccc([N+](=O)[O-])cc1)N1CCCCCC1    -21.9
COc1ccccc1CC(=O)N1CCN(c2ccccc2)CC1    9.19
O=C(Nc1ccc([N+](=O)[O-])cn1)c1cc(-c2cccc(Br)c2)nc2ccccc12    17.6
O=c1c2ccccc2nc(Cc2ccccc2)n1-c1ccccc1    -20.9
c1ccc(-c2noc(C3CCC3)n2)nc1    4.59
CC1CCc2c(C(=O)NCc3ccco3)csc2C1 (centres unmarked)    -8.96
Cc1c(-c2ccccc2)c(=O)oc2ccc(O)cc12    13.8
O=C(Cc1ccc([N+](=O)[O-])cc1)N1CCN(c2ccc([N+](=O)[O-])cc2)CC1    -73.7
COc1ccc(C2=C(Nc3ccc(C)cc3)c3ccccc3C2=O)cc1    3.57
COc1ccc(N2CCN(C(=O)Cc3ccc(C)cc3)CC2)cc1    -6.07
O=c1c2ccccc2nc(Cc2cccc([N+](=O)[O-])c2)n1-c1ccc(O)cc1    -35.5
